Tested on: Staphylococcus epidermidis
Test: Antibacterial activity against methicillin-sensitive Staphylococcus epidermidis 09-9 by agar dilution method
Assay type: functional
assayEndpoint: MIC (µg/mL)
Field format: number, assumed µg/mL, no unit text.

Solved cases below.
{"compoundStructureString": "N=C(NC1CC1)c1ccc2cc(-c3ccc(Oc4ccc(-c5cc6ccc(C(=N)NC7CC7)cc6[nH]5)cc4)cc3)[nH]c2c1", "MIC (µg/mL)": 4}
{"compoundStructureString": "C[C@H]1COc2c(N3CCN(C)CC3)c(F)cc3c(=O)c(C(=O)O)cn1c23.C[C@H]1COc2c(N3CCN(C)CC3)c(F)cc3c(=O)c(C(=O)O)cn1c23.O", "MIC (µg/mL)": 8}
{"compoundStructureString": "N=C(NC1CCC1)c1ccc2cc(-c3ccc(Oc4ccc(-c5cc6ccc(C(=N)NC7CCC7)cc6[nH]5)cc4)cc3)[nH]c2c1", "MIC (µg/mL)": 8}
{"compoundStructureString": "N=C(c1ccc2cc(-c3ccc(Oc4ccc(-c5cc6ccc(C(=N)N7CCOCC7)cc6[nH]5)cc4)cc3)[nH]c2c1)N1CCOCC1", "MIC (µg/mL)": 2}
{"compoundStructureString": "CCCNC(=N)c1ccc2cc(-c3ccc(Oc4ccc(-c5cc6ccc(C(=N)NCCC)cc6[nH]5)cc4)cc3)[nH]c2c1", "MIC (µg/mL)": 8}
{"compoundStructureString": "CN[C@H](CC(C)C)C(=O)N[C@H]1C(=O)N[C@@H](CC(N)=O)C(=O)N[C@H]2C(=O)N[C@H]3C(=O)N[C@H](C(=O)N[C@H](C(=O)O)c4cc(O)cc(O)c4-c4cc3ccc4O)[C@H](O)c3ccc(c(Cl)c3)Oc3cc2cc(c3O[C@@H]2O[C@H](CO)[C@@H](O)[C@H](O)[C@H]2O[C@H]2C[C@](C)(N)[C@H](O)[C@H](C)O2)Oc2ccc(cc2Cl)[C@H]1O", "MIC (µg/mL)": 0.5}

Continue with the compound presented below.
Identify MIC associated with the compound N=C(c1ccc2cc(-c3ccc(Oc4ccc(-c5cc6ccc(C(=N)N7CCCCC7)cc6[nH]5)cc4)cc3)[nH]c2c1)N1CCCCC1
8

====

System: Staphylococcus epidermidis
Assay: Antibacterial activity against methicillin-sensitive Staphylococcus epidermidis 09-9 by agar dilution method
Assay type: functional
assayEndpoint: MIC (µg/mL)
Give just the number in µg/mL; leave the unit off.

The examples below pair each entry with its known result.
{"compoundStructureString": "N=C(c1ccc2cc(-c3ccc(Oc4ccc(-c5cc6ccc(C(=N)N7CCC7)cc6[nH]5)cc4)cc3)[nH]c2c1)N1CCC1", "MIC [µg/mL]": 0.5}
{"compoundStructureString": "N=C(NC1CCCC1)c1ccc2cc(-c3ccc(Oc4ccc(-c5cc6ccc(C(=N)NC7CCCC7)cc6[nH]5)cc4)cc3)[nH]c2c1", "MIC [µg/mL]": 8}
{"compoundStructureString": "N=C(c1ccc2cc(-c3ccc(Oc4ccc(-c5cc6ccc(C(=N)N7CCCC7)cc6[nH]5)cc4)cc3)[nH]c2c1)N1CCCC1", "MIC [µg/mL]": 2}

Continue with the next compound.
// Input: c1cc(-c2cc3ccc(C4=NCCCN4)cc3[nH]2)ccc1Oc1ccc(-c2cc3ccc(C4=NCCCN4)cc3[nH]2)cc1 . Output its MIC only.
1

====

System: Escherichia coli
Assay: Antibacterial activity against extended-spectrum beta-lactamase-positive Escherichia coli 09-1 by agar dilution method
Type: functional
assayEndpoint: MIC

Below: 2 compounds and their reported MIC.
{"compoundStructureString": "N=C(c1ccc2cc(-c3ccc(Oc4ccc(-c5cc6ccc(C(=N)N7CCCCC7)cc6[nH]5)cc4)cc3)[nH]c2c1)N1CCCCC1", "MIC": "> 128 µg/mL"}
{"compoundStructureString": "N=C(NC1CCCCC1)c1ccc2cc(-c3ccc(Oc4ccc(-c5cc6ccc(C(=N)NC7CCCCC7)cc6[nH]5)cc4)cc3)[nH]c2c1", "MIC": "128 µg/mL"}

Shifting focus to the compound that follows.
Provide MIC, system Escherichia coli, entry N=C(NC1CCC1)c1ccc2cc(-c3ccc(Oc4ccc(-c5cc6ccc(C(=N)NC7CCC7)cc6[nH]5)cc4)cc3)[nH]c2c1
> 128 µg/mL

====

Tested on: Enterococcus faecalis
Assay: Antibacterial activity against vancomycin-resistant Enterococcus faecalis 09-9 by agar dilution method
Type: functional
assayEndpoint: MIC (µg/mL)
Provide only the numeric value, understood in µg/mL.

Completed entries (count: 5):
{"compound": "CN(C)C(=N)c1ccc2cc(-c3ccc(Oc4ccc(-c5cc6ccc(C(=N)N(C)C)cc6[nH]5)cc4)cc3)[nH]c2c1", "testedTarget": "Enterococcus faecalis", "MIC, µg/mL": 2}
{"compound": "N=C(NC1CC1)c1ccc2cc(-c3ccc(Oc4ccc(-c5cc6ccc(C(=N)NC7CC7)cc6[nH]5)cc4)cc3)[nH]c2c1", "testedTarget": "Enterococcus faecalis", "MIC, µg/mL": 8}
{"compound": "N=C(NC1CCCC1)c1ccc2cc(-c3ccc(Oc4ccc(-c5cc6ccc(C(=N)NC7CCCC7)cc6[nH]5)cc4)cc3)[nH]c2c1", "testedTarget": "Enterococcus faecalis", "MIC, µg/mL": 128}
{"compound": "N=C(c1ccc2cc(-c3ccc(Oc4ccc(-c5cc6ccc(C(=N)N7CCCCC7)cc6[nH]5)cc4)cc3)[nH]c2c1)N1CCCCC1", "testedTarget": "Enterococcus faecalis", "MIC, µg/mL": 32}
{"compound": "CCCNC(=N)c1ccc2cc(-c3ccc(Oc4ccc(-c5cc6ccc(C(=N)NCCC)cc6[nH]5)cc4)cc3)[nH]c2c1", "testedTarget": "Enterococcus faecalis", "MIC, µg/mL": 16}

Provide MIC value for the following compound: CCC(C)NC(=N)c1ccc2cc(-c3ccc(Oc4ccc(-c5cc6ccc(C(=N)NC(C)CC)cc6[nH]5)cc4)cc3)[nH]c2c1 (configuration not stated)
8

====

List of MIC values.
Tested on: Proteus vulgaris
Assay: Antibacterial activity against Proteus vulgaris ATCC 29905 by agar dilution method
Format: functional

Known MIC results, listed for orientation:
{"compound": "CNC(=N)c1ccc2cc(-c3ccc(Oc4ccc(-c5cc6ccc(C(=N)NC)cc6[nH]5)cc4)cc3)[nH]c2c1", "assayEndpoint": "MIC", "recordedMeasurement": "> 128 µg/mL"}
{"compound": "CC1CC(C)CN(C(=N)c2ccc3cc(-c4ccc(Oc5ccc(-c6cc7ccc(C(=N)N8CC(C)CC(C)C8)cc7[nH]6)cc5)cc4)[nH]c3c2)C1 (configuration not stated)", "assayEndpoint": "MIC", "recordedMeasurement": "> 128 µg/mL"}

Return value of MIC for input c1cc(-c2cc3ccc(C4=NCCCN4)cc3[nH]2)ccc1Oc1ccc(-c2cc3ccc(C4=NCCCN4)cc3[nH]2)cc1 , no commentary.
128 µg/mL

// fetch MIC given entry CCCNC(=N)c1ccc2cc(-c3ccc(Oc4ccc(-c5cc6ccc(C(=N)NCCC)cc6[nH]5)cc4)cc3)[nH]c2c1
> 128 µg/mL

Annotate the compound N=C(NC1CCCC1)c1ccc2cc(-c3ccc(Oc4ccc(-c5cc6ccc(C(=N)NC7CCCC7)cc6[nH]5)cc4)cc3)[nH]c2c1 with its measured MIC.
> 128 µg/mL

Fill in reported MIC for this entry: N=C(NC1CCC1)c1ccc2cc(-c3ccc(Oc4ccc(-c5cc6ccc(C(=N)NC7CCC7)cc6[nH]5)cc4)cc3)[nH]c2c1
> 128 µg/mL

Given CCC(C)NC(=N)c1ccc2cc(-c3ccc(Oc4ccc(-c5cc6ccc(C(=N)NC(C)CC)cc6[nH]5)cc4)cc3)[nH]c2c1 (configuration not stated) , respond with its MIC.
32 µg/mL

====

Each record here notes measured MIC.
System: Klebsiella pneumoniae
Assay: Antibacterial activity against extended-spectrum beta-lactamase-positive Klebsiella pneumoniae 09-25 by agar dilution method
Type: functional

{"compoundStructureString": "c1cc(-c2cc3ccc(C4=NCCN4)cc3[nH]2)ccc1Oc1ccc(-c2cc3ccc(C4=NCCN4)cc3[nH]2)cc1", "testedTarget": "Klebsiella pneumoniae", "recordedMeasurement": "> 128 µg/mL"}
{"compoundStructureString": "N=C(c1ccc2cc(-c3ccc(Oc4ccc(-c5cc6ccc(C(=N)N7CCC7)cc6[nH]5)cc4)cc3)[nH]c2c1)N1CCC1", "testedTarget": "Klebsiella pneumoniae", "recordedMeasurement": "64 to 128 µg/mL"}

Answer with reported MIC of CN(C)C(=N)c1ccc2cc(-c3ccc(Oc4ccc(-c5cc6ccc(C(=N)N(C)C)cc6[nH]5)cc4)cc3)[nH]c2c1
8 µg/mL

====

System: Proteus vulgaris
Test: Antibacterial activity against Proteus vulgaris ATCC 29905 by agar dilution method
Format: functional
Entries and their MIC values follow.
Give just the number in µg/mL; leave the unit off.

{"compoundStructureString": "CCNC(=N)c1ccc2cc(-c3ccc(Oc4ccc(-c5cc6ccc(C(=N)NCC)cc6[nH]5)cc4)cc3)[nH]c2c1", "unitsText": "µg/mL", "recordedMeasurement": 128}

Under Proteus vulgaris: report MIC of N=C(NC1CCCCC1)c1ccc2cc(-c3ccc(Oc4ccc(-c5cc6ccc(C(=N)NC7CCCCC7)cc6[nH]5)cc4)cc3)[nH]c2c1 .
128

# return MIC of CN(C)C(=N)c1ccc2cc(-c3ccc(Oc4ccc(-c5cc6ccc(C(=N)N(C)C)cc6[nH]5)cc4)cc3)[nH]c2c1 (system: Proteus vulgaris)
8
